- Tested on: PepF
- experiment: Screening of sXIP variants for susceptibility to PepF degradation
- Type: in vitro ADME, Streptococcus salivarius HSISS4
- condition-set: peptide 500 nM pre-incubated with PepF 7 nM, 4 h, 37°C vs without PepF; PcomS-luxAB ΔcomS reporter luminescence; mean of technical triplicates
No end group written: not given here.
parameter-measured: percentage of signal loss (%)
Enter your answer as a number in %; do not include the unit.

Some entries whose results are on file:
APYFMGCL [APYFMGCL] | 99.0138
LPYFVGCL [LPYFVGCL] | 94.8201
_PYFMGCL [sXIP variant of the screening lacking the first residue] | 28.6586

Query :: What percentage of signal loss value was documented for this substance, LPYFAICL [LPYFAICL] ?
Result :: 1.804

Query :: How about LPYFMGCL [LPYFMGCL] ?
Result :: 85.0947

----------
# Lookup of reported percentage of signal loss keyed by entry
- System: PepF
- experiment: Screening of sXIP variants for susceptibility to PepF degradation
- Format: in vitro ADME, Streptococcus salivarius HSISS4
- condition-set: peptide 500 nM pre-incubated with PepF 7 nM, 4 h, 37°C vs without PepF; PcomS-luxAB ΔcomS reporter luminescence; mean of technical triplicates
No end group written: not given here.
Enter your answer as a number in %; do not include the unit.

Some entries whose results are on file:
LPYWAGCL [LPYWAGCL] | 68.1634
LPYFGGCL [LPYFGGCL] | 69.5765
LPYFAGCL [sXIP, reference compound] | 99.5932
ITILPYFAGCL [ITILPYFAGCL] | 99.5087
LPYFMICL [LPYFMICL] | 10.0484
LPYFAACL [LPYFAACL] | 99.6712
LPYAAGCL [LPYAAGCL] | 77.0857
LPAFAGCL [LPAFAGCL] | 83.5452
LPYFIGCL [LPYFIGCL] | 78.4996

Next sequence, percentage of signal loss to be filled in.
Query :: What percentage of signal loss value was documented for this sequence, LPYFTGCL [LPYFTGCL] ?
Result :: 97.3896
